Cited source for all entries: the DeepSol protein solubility set

assay: soluble on expression in E. coli; label from the status in PepcDB or PDB records
result-type: soluble on expression in E. coli

polymer-sequence: MGSDKIHHHHHHMAARLREFRRAIGDPDREEFARSIGVSKTTLASYERGESEPTASVLFAYREKHGADVLWLVGGEGEMRGSQLSSAAVAERDFVLMPQYDVCASAGTGRLPVNQMPTSETAFERKFLRDLGGAPDHCFLMWSTGDSMLPSIPDNALLIVDASQTTVDHGRIYVFSVGNAVLVKRANWRMDGRLDLISDNTAGKYPVETFDANRVEDLAVVGRVIFVGHPP
experimental-result: not soluble
//
polymer-sequence: DIVLTQSPTTMAASPGEKITITCSASSSISSNYLHWYQQKPGFSPKLLIYRTSNLASGVPARFSGSGSGTSYSLTIGTMEAEDVATYYCQQGSSIPLTFGAGTKLELKRADAAPTVSIFPPSSEQLTSGGASVVCFLNNFYPKDINVKWKIDGSERQNGVLNSWTDQDSKDSTYSMSSTLTLTKDEYERHNSYTCEATHKTSTSPIVKSFNRNEC
experimental-result: soluble
//
polymer-sequence: MSNHQKRLSVPNSWPVERKTATFTVKAGAGPHGESGVPLLIVLRDVLGYADNRKEARYALNEDNVLINGKAISDEERPVGMFDILAFTEREEYYRVFPGEGGRLALTAIDPDAAQSKLGKIVTKTHVSGGDVQLGLHDGETLIVEDDQTYDAGDSIVVGNEDGEVVAHFEYEEGALVTAVDGAHAGEVGEVEEIQVTPGSAQNNVIVSQDEGEGFETVEEYVVVIDENFTGDDELEHHHHHH
experimental-result: soluble
//
polymer-sequence: MNRVDLSIFIPDSLTAETGDLKIKTYKVVLIARAASIFGVKRIVIYHDDADGEARFIRDILTYMDTPQYLRRKVFPIMRELKHVGILPPLRTPHHPTGKPVTGEYRQGLTVKRVKKGTLVDIGADKLALCREKLTVNRIMSFRVVRLGKEILIEPDEPEDRYWGYEVLDTRRNLAESLKTVGADVVVATSRNASPITSILDEVKTRMRGAREAAILFGGPYKGLPEIDADIWVNTLPGQCTETVRTEEAVLATLSVFNMLTQIDEKDE
experimental-result: soluble
//
polymer-sequence: MIKRVFIDTDIILDVALAREPFFTASKIILAMAENNIIIGNISSNCVANIYYILRKSGGDNKARKFILNIVKYITVIVINHRNVLDSLRSKFSDFEDALQHSSAVENQCEYIITRNIEDYKNAKIKVLLPEEFIGMFLEHHHHHH
experimental-result: not soluble
//
polymer-sequence: MILMAIGLLMGSYYAVEWYKGKSSAQELTNEEIKSFKNIQHNQLPYETLVTSQVPSSQTEHKEGEKVAMLNIPKLKKKFSIYWGADDATLKKGVGMFVSDVTTTPSGGGHTVLSGHRDTVFTDLGQLKEKDTLVLEYDNKTYTYEIQKIWITHADDRTVIIKKEEPILTLTTCYPFDYIGDAPDRYIIEAKLTGSYSK
experimental-result: not soluble
//
polymer-sequence: MAHHHHHHMGPTPYQDKPYPVQPHNLNEFQQPPDTWRKSPFMSKLMDQALPVYDDVVTGSGRLYWQEPAKVWHLFEADDTLILEEHDREEWNERPYVAVNHLYEPPIGSEERPIRVEAVGNPGDQQIVMCFGNCAPHVPQSTYYMMMKGYSKNKCPMCQQWFYIHNRPWLVMHPDWTDEPAADEGPAYTFAEIEAEFDRDFHEFAVYLNAE
experimental-result: not soluble

====

assay: soluble on expression in E. coli; label from the status in PepcDB or PDB records
result-type: soluble on expression in E. coli

polymer-sequence: MGGFLVLNSSNNVVRTVPSKKRKHPEYKSKGSQIRELISGIRSDNLREAVRLPQGVDINEWFAMNNFFNQISLLYATLEEFCTQTTCPVMNAGRYEYRWADGTTITKPKTVSAPKYVEYLIDWVETEIDNEAIFPKNPGEPFPPNFEDFVKRILRKLFRVYAHIYYSHFHEIVALNEQAHLNTCFKHFLLFVSEFQLVDKEKEMAPIKSLVETMLDQ
result-type: soluble on expression in E. coli
experimental-result: soluble
//
polymer-sequence: MHAPLVSKDLDYISTANHDQPPRHLGSRFSAEGEFLPEPGNTVVCHLVEGSQTESAIVSTRQRFLDMPEASQLAFTPVSSLHMTVFQGVIESRRALPYWPQTLPLDTPIDAVTDYYRDRLSTFPTLPAFNMRVTGLRPVGMVMKGATAEDDSIVALWRDTFADFFGYRHPDHDTYEFHITLSYIVSWFEPECLPRWQAMLDEELEKLRVAAPVIQMRPPAFCEFKDMNHFKELVVFDKR
result-type: soluble on expression in E. coli
experimental-result: soluble
//
polymer-sequence: ENPRNVGSLDKTSKNVGTGLVGAPACGDVMKLQIQVDEKGKIVDARFKTFGCGSAIASSSLATEWVKGKTVEEALTIKNTDIAKELCLPPVKLHCSMLAEDAIKAALADYKLKQESK
result-type: soluble on expression in E. coli
experimental-result: soluble

====

experiment: soluble on expression in E. coli; label from the status in PepcDB or PDB records

polymer-sequence: MRFVYLSDLDNNQKNFYKEADRQSALLSMLIEKDIDFIGAGANFYQVGSKKDWSQFPLFADSLLHRSNSLISLQWMEKVEEKDIDEHFQQIHKNYPLAKLYTVPKDQPKTYGYVMKNHEPIYIATDIYPRDEKNTPLIGFYSSRERFNLVVEEFLTTGRPSVSDKIRLLQDSLDQSAQKTGMLVYHPVFTSDKTALKGVMVGVVRITSYFDRLVNSTSLGEELVVRIIDTGFDAGDDPIMYQSSTWNNFKGVDYTTSVKIENRLWKIEYKSDNKLNEYQRLTLEHHHHHH
soluble on expression in E. coli: not soluble
//
polymer-sequence: MQVKSIKMRWESGGVNYCYLLSDSKNKKSWLIDPAEPPEVLPELTEDEKISVEAIVNTHHHYDHADGNADILKYLKEKNPTSKVEVIGGSKDCPKVTIIPENLKKLHLGDLEITCIRTPCHTRDSICYYVKDPTTDERCIFTGDTLFTAGCGRFFEGTGEEMDIALNNSILETVGRQNWSKTRVYPGHEYTSDNVKFVRKIYPQVGENKALDELEQFCSKHEVTAGRFTLKDEVEFNPFMRLEDPKVQKAAGDTNNSWDRAQIMDKLRAMKNRM
soluble on expression in E. coli: soluble
//
polymer-sequence: MAHHHHHHMGLEDIDVDDPPLTTSATPQTQKQCSSTLPNPPVTNVVKGASAPVDLVDLFGDLNVSTATPVVVTAATVGAATNSKNQAHYAGNTADDDFEWVTAKPSVAPPLAPKSYQGNAGTSNDPLDSFFSQAVPTPAATETAKPPDSSNDLFDFSEPVERVKYTNENTLLEAFANQGKANQGGGSKGPTLADLSKGSSDNVVKARLLKLMNYYDVLGVTPDATEAVIRQRFKKKALELHPDRVGRDQTPEEVELFKVMTKAHEVLTDPEERAKYDAQLLGGVPSGSPDSDWFFPPS
soluble on expression in E. coli: soluble
//
polymer-sequence: MGSDKIHHHHHHMSSLINDIHAEDVANYLNRNREFFHVFPNLLNELSIPHPKSGHEVSLLERQVFQLREQRDSLQVEVDTLKDIAGENGALLHKVYDLSYALLAAESEQEAVNVVYDVMHDVFTVEEVTIISWEVPKSSVHGVNQLGISQAWSQSLKETLQPGKPVCGLLEDSWQKGLFHTDKAMQSVCVIPLGQQRVWGALALGATTDRFSPELGTYFLKVMGQMVTARLQRLF
soluble on expression in E. coli: not soluble
//
polymer-sequence: MGSDKIHHHHHHMDAAKDDLEHAKHDLEHGFYNWACFSSQQAAEKAVKAVFQRMGAQAWGYSVPDFLGELSSRFEIPEELMDHALELDKACIPTRYPDALPSGSPRNRYSRIEAERLVNYAEKIIRFCEDLLSRI
soluble on expression in E. coli: soluble
//
polymer-sequence: MGSDKIHHHHHHMTKKTGFFKRLKALELPQKQLFAIALCQRMLPNYQLFSEVCEFGDPAVLNTVLELLWQSQYDNKLKFNIDVHLQRLEDNTPDPVDFEAYGVYPAMDAVVALSTLLSAIQDKNEEDIINISKLSSSTVANYIEAISDVDLVDDALDDFVFAHEVMEEEKELQNSLLEIIEENPKITAELVKGLRKDIIEAGVSNIGISIA
soluble on expression in E. coli: not soluble

====

experiment: soluble on expression in E. coli; label from the status in PepcDB or PDB records

polymer-sequence: MSLRPPQTLSRGWGDDITWVQTYEEGLFYAQKSKKPLMVIHHLEDCQYSQALKKVFAQNEEIQEMAQNKFIMLNLMHETTDKNLSPDGQYVPRIMFVDPSLTVRADIAGRYSNRLYTYEPRDLPLLIENMKKALRLIQSELEGHHHHHH
soluble on expression in E. coli: soluble
--
polymer-sequence: MNDKQYQEIASLLERLSRNNAMSIYGDWIKNSFSKELIASISVLTHNDLKILDSLFKQDLSISDVVSRTGLSQGGVSRRVNMMSEKGIIHKYQNDKNKKTVFLKLNPIGQELFDFHRKLHDHIKEIFFQKTQRFNEEQIRVVISFLEAILT
soluble on expression in E. coli: soluble
--
polymer-sequence: MAVAANKRSVMTLFSSASDMYSHQVRIVLAEKGVSFEVELVDENNLPAELIELNPYKTVPTLVDRELALYDSKIIMEYLDERFPHPPLMPVYPVARGNSRLMIYRIERNWYSLAEKVVNGSPEVAENARNKLRNDLLTLGPVFAEFEYFMSEEFSLIDCYLAPLLWRLPVLGIDLIGPGSKELKVYMNRVFERDSFLASLTEAEREMRLAR
soluble on expression in E. coli: not soluble
--
polymer-sequence: MDMDREQSVQHFLDLIKKSHRGKFKIYIGMIAGVGKSYRMLQEAHELLENGVDVQIGYIETHGRAGTEALMQGLPVIPRRKIFYKGKELEEMDVDAIIRLHPEIVIVDELAHTNVEGSLNEKRWQDVMTLLDEGINVISAINIQHIESVNEEVQEITGIEVKERVPDSVLQEADEVVNIDLTAEELISRLKAGKIYRPEKIQTALDNFFRTENILQLRELALKEVALRVEKKVENEVVMGVSVGIRHEKFMACISSHEKTPRRIIRKAARLATRYNTTFVALYVQTPRESMDRIDLASQRYLLNHFKLVAELGGEVIQVQSKDILGSIVKVCRDKQISSVCMGTPNLRFPHAICSILGYRKFLNNLSQANVDLIILA
soluble on expression in E. coli: not soluble
